Target protein (sequence): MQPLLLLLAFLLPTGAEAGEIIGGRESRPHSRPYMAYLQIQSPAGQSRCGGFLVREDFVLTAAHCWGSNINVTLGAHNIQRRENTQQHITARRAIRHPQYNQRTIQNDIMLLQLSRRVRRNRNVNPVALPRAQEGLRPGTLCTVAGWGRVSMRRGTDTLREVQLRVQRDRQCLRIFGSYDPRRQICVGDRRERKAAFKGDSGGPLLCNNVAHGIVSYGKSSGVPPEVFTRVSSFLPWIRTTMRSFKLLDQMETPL
metric-name: Ki

Which Ki is reported for this compound? O=C(O)COc1cc(Cc2cc(OCc3ccccc3)c(Cc3cc(OCc4ccccc4)c(Cc4cc(OCc5ccccc5)c(Cc5cc(OCc6ccccc6)c(Cc6cc(O)ccc6OCC(=O)O)cc5OCC(=O)O)cc4OCC(=O)O)cc3OCC(=O)O)cc2OCC(=O)O)c(OCc2ccccc2)cc1CO
> 15 µM

Bench note: what Ki did O=C(O)COc1cc(Cc2cc(OCc3ccccc3)c(Cc3cc(OCc4ccccc4)c(Cc4cc(OCc5ccccc5)c(Cc5cc(O)ccc5OCC(=O)O)cc4OCC(=O)O)cc3OCC(=O)O)cc2OCC(=O)O)c(OCc2ccccc2)cc1CO show?
> 15 µM

Dear colleague, I am looking for the recorded Ki of the following compound: COc1ccc(OCC(=O)O)c(Cc2cc(OCCCc3ccccc3)c(Cc3cc(OCC(=O)O)c(Cc4cc(OCCCc5ccccc5)c(Cc5cc(OCC(=O)O)c(Cc6cc(OCCCc7ccccc7)c(C)cc6OC)cc5OC)cc4OC)cc3OC)cc2OC)c1
> 15 µM

Bench note: what Ki did COc1cc(CO)c(OCc2ccccc2)cc1Cc1cc(OC)c(Cc2cc(OC)c(Cc3cc(OC)c(Cc4cc(OC)c(Cc5cc(O)ccc5OCC(=O)O)cc4OCc4ccccc4)cc3OCC(=O)O)cc2OCc2ccccc2)cc1OCC(=O)O show?
1.5 µM

// query Ki value for entry O=C(O)COc1cc(Cc2cc(OCc3ccccc3)c(Cc3cc(OCc4ccccc4)c(Cc4cc(O)ccc4OCC(=O)O)cc3OCC(=O)O)cc2OCC(=O)O)c(OCc2ccccc2)cc1CO
> 15 µM
